Cited source: PubChem BioAssay (NCI)

- Test system: ACHN renal
- assay.notes: NCI-60 one-dose screen, 48 h (100 = growth as untreated, 0 = no growth, -100 = all killed)
- measurement.context: 10 µM
Compounds without any hit were thinned out: in the full panel of roughly 83,000, 20% have a hit.
Some compounds, each annotated with its measured growth.
Report the figure in % without appending any unit label.

{"columns": ["compound", "unit.label", "growth"],
 "data": [
  ["COc1ccc(CN2[C@@H](C(=O)NCc3ccc(C(=O)NO)cc3)Cc3c([nH]c4ccccc34)[C@@H]2C2CC2)cc1", "%", 35.5],
  ["CC[C@@]1(O)C(=O)OCc2c1cc1n(c2=O)Cc2c-1nc1cc(F)c(C)c3c1c2[C@@H](N)CC3", "%", -57.8],
  ["O=C(COc1ccc(NC(=O)Nc2ccc(Cl)cc2)cc1)N=Nc1c(O)[nH]c2ccc([N+](=O)[O-])cc12", "%", 93.4],
  ["O=C(c1ccc(O)cc1)C1[C@H](c2ccccc2Br)[C@@H](c2ccccc2)NC12C(=O)Nc1ccc(Cl)cc12 (stereo not given in full)", "%", 2.5],
  ["Nc1nc(Nc2ccc(Cl)cc2)nn1Cc1cccc(Br)c1", "%", 22.8],
  ["CC(=O)NNc1ccc2nnc(-c3ccc(Br)cc3)n2n1", "%", 101],
  ["COc1ccc2[nH]cc(/C=N/Nc3cccc(Cl)n3)c2c1", "%", 47.8],
  ["COc1cc(NC(=O)c2cc(-c3ccc(F)cc3F)ccc2O)cc(OC)c1OC", "%", 55.9],
  ["COc1ccc(/C=C/C(=O)c2ccc(S(=O)(=O)NCCNc3nc(Nc4ccc(F)cc4)nc(N(C)C)n3)cc2)cc1", "%", 16.2],
  ["N#Cc1c(NC(=O)c2ccc(C(F)(F)F)cc2C(F)(F)F)sc2c1CCC(=O)C2", "%", -99.4]
]}

Data request, read-out growth, for `COc1cc2c3c(n(CCCN4CCOCC4)c(=O)c2cc1OC)-c1nc2c(cc1C3=O)OCO2`
-11.7

Entry `Cc1cc(C)nc(/N=C(\N)Nc2ccc(S(=O)(=O)Nc3nc(C)cc(C)n3)cc2)n1` please
115

Query `Cc1cc(C(F)(F)F)ccc1C(=O)Nc1sc2c(c1C#N)CCC(=O)C2` next
-95.9

Same question, `CC1(C)[C@@H](NCO)CC[C@]2(C)[C@H]3C(=O)C=C4[C@@H]5C[C@](C)(CO)CC[C@]5(C)CC[C@@]4(C)[C@]3(C)CC[C@@H]12` this time
63.1

====

- Tested on: MDA-MB-468 breast
- assay.notes: NCI-60 one-dose screen, 48 h
- measurement.context: 10 µM
This is part of a sample that, as a whole, favours compounds with a hit. Of some 83,000 tested, about 20% had one in any assay. Activity calls are given as the source filed them. The calls were made as follows: active = growth percent below 10; inactive = the rest.
Your response should consist of one outcome taken from active, inactive

Use the examples below as a reference point.
{"columns": ["molecule", "label.class"],
 "data": [
  ["Cc1ccc(-c2cc(C(=O)N=Nc3c(O)[nH]c4ccc(Br)cc34)c3ccccc3n2)cc1", "inactive"],
  ["COc1cccc(-c2nn(-c3ccccc3)cc2-c2ccnc(NCCCNC(=O)Nc3ccc(F)cc3)c2)c1", "active"],
  ["CC(=O)Nc1ccc(-c2cn(-c3cccc(C(=O)Nc4cccc(OC(F)(F)F)c4)c3)nn2)cn1", "inactive"],
  ["Cn1c(O)c(N=Nc2nc(-c3cc4ccccc4oc3=O)cs2)c2cc(Br)ccc21", "inactive"],
  ["CNCc1cccc2c1OCCCCCC[C@@](C)(O)CC1(CC1)S(=O)(=O)c1ccc(cc1)-c1cnc(N)c(n1)C(=O)N2", "active"],
  ["O=C(c1ccc(Cl)cc1)C1[C@H](c2ccc(Br)cc2)[C@@H](c2ccccc2)NC12C(=O)Nc1ccccc12 (some centres not stated)", "active"],
  ["CN1C/C(=C\\c2ccc(O)cc2O)c2[o+]c3cc(O)ccc3cc2C1", "active"],
  ["CN1C(=O)N(C)C2SC(N/N=C/c3cccs3)=NC21 (configuration not stated)", "active"],
  ["COc1csc(/C=N/NC(=O)c2[nH]c3ccc(Br)cc3c2-c2ccccc2)c1", "active"],
  ["Oc1ccc(/C=C2\\CCCc3cc4ccc(O)cc4[o+]c32)c(O)c1", "active"]
]}

Give the logged outcome of this assay for the following molecule: `CN1CCN(c2ccc(Nc3nc(NCCCNC(=O)c4ccccc4)c4sccc4n3)cc2)CC1`
inactive

Then this molecule: `O=C1c2ccccc2C(=O)c2c1c(C(=O)c1ccc(Cl)cc1)n1c2ccc2c3ccccc3ccc21`
inactive
